The following molecules are listed with their measured cell viability values.
test system: HepG2; assay: cell viability relative to DMSO; higher = less toxic; settings: 72 h; 1 nM
recorded_metric: cell viability (%)

1) COc1ccc(Cl)cc1NC(=O)Nc1cc(C)nc2ccccc12 = 99.1
2) CNC(=O)c1ccccc1Nc1nc(Nc2ccc(N3CCOCC3)cc2OC)ncc1Cl = 114
3) C[Se]C[C@H](N)C(=O)O = 101
4) CNCCC=C1c2ccccc2CCc2ccccc21 = 110
5) CCCCCCN(CCCCCC)C(=O)Cc1c(-c2ccc(Cl)cc2)[nH]c2ccc(Cl)cc12 = 104
6) O=c1ccn([C@@H]2O[C@H](COP(=O)(O)OP(=O)(O)OP(=O)(O)O)[C@@H](O)[C@H]2O)c(=O)[nH]1 = 100
7) CCCOc1ccc(S(=O)(=O)N2CCN(CCO)CC2)cc1-c1nc2c(CCC)cn(CC)c2c(=O)[nH]1 = 105
8) CC[C@H](CC[C@@H](C)[C@H]1CC[C@H]2[C@@H]3CC=C4C[C@@H](O)CC[C@]4(C)[C@H]3CC[C@]12C)C(C)C = 88.3
9) CC(=N)NCc1cccc(CN)c1 [1400W] = 102
10) CCOC(=O)c1ccccc1OC(N)=O [ethyl-2-(carbamoyloxy)benzoate] = 106
11) COc1cc(OC)cc(-c2ccc3c(-c4ccc(F)cc4)n[nH]c3n2)c1 = 99.8
12) CC(C)(C)C(=O)Oc1ccc(S(=O)(=O)Nc2ccccc2C(=O)NCC(=O)O)cc1 = 101
13) NC(=O)NCCC[C@H](N)C(=O)O = 100
14) CN1CCCCC1CCN1c2ccccc2Sc2ccc([S+](C)[O-])cc21 (stereo not given) = 108
15) CC(C)/N=c1\cc2n(-c3ccc(Cl)cc3)c3ccccc3nc-2cc1Nc1ccc(Cl)cc1 = 94.1

----------
system: Calu-3; experiment: cell viability relative to DMSO; higher = less toxic; conditions: 72 h; 1000 nM
recorded_metric: cell viability (%)

1. CC(=O)N[C@@H](CS)C(=O)O = 96.2
2. CCCCNc1c(C(=O)OCC)c(C)nc2c1cnn2CC [tracazolate] = 102
3. CC(=O)Nc1ccc(C(=O)NC(C)(C)C)cc1 = 114
4. O=C1NCN(c2ccccc2)C12CCN(CC1COc3ccccc3O1)CC2 (centres undefined) = 100
5. Nc1cccc2c1C(=O)N(C1CCC(=O)NC1=O)C2=O (centres undefined) [pomalidomide] = 105
6. CCCCCCN(CCCCCC)C(=O)Cc1c(-c2ccc(Cl)cc2)[nH]c2ccc(Cl)cc12 = 101
7. CCc1ccccc1OC[C@@H](O)CN[C@H]1CCCc2ccccc21 = 91.1
8. Cc1nc2c([nH]1)-c1ccccc1N(C(=O)c1ccc(NC(=O)c3ccccc3-c3ccccc3)cc1)CC2 = 94.1
9. CC(C)(C)NC(=O)[C@@H](c1cccnc1)N(C(=O)c1ccco1)c1ccc(C(C)(C)C)cc1 = 102
10. O=c1cc(N2CCNCC2)oc2c(-c3ccccc3)cccc12 = 106
11. COc1ccc(-c2ccc3c(N4CCOC[C@@H]4C)nc(N4CCOC[C@@H]4C)nc3n2)cc1CO = 26.4
12. O=C(c1ccc(Cl)cc1)N(Cc1ccccc1)C1CCCCC1 = 99.3
13. Cc1cc2cc3c(C)cc(=O)oc3c(C)c2o1 = 120
14. Oc1c(Cl)cc(Cl)c(Cl)c1Cc1c(O)c(Cl)cc(Cl)c1Cl = 99.4
15. CC(C)Oc1cccc(CC(=O)N2CCC[C@](CC[N+]34CCC(c5ccccc5)(CC3)CC4)(c3ccc(Cl)c(Cl)c3)C2)c1 = 92.5
16. CC(=O)[C@@]1(O)CC[C@H]2[C@@H]3C[C@H](C)C4=CC(=O)C=C[C@]4(C)[C@@]3(F)[C@@H](O)C[C@@]21C = 92.5
17. CC#CCOC(=O)c1c(C)nc2sc3c(c2c1N)CCC(O)C3 (centres undefined) = 101
18. O[C@@H](Cc1ccncc1)C(Cl)(Cl)Cl = 95.3
19. CCCC[C@H]1OC(=O)c2ccccc21 [butylphthalide] = 95.5

----------
tested on: A549-ACE2 infected with SARS-CoV-2; experiment: SARS-CoV-2 infection rate relative to DMSO; higher = more infection; details: 3 µM; 24 h
recorded_metric: SARS-CoV-2 infection rate (%)

1) CN1[C@@H]2CC[C@H]1C[C@@H](OC(c1ccccc1)c1ccccc1)C2 [benztropine-mesylate] = 60
2) NCCc1c[nH]c2ccc(C(N)=O)cc12 = 99
3) Cc1cccc(/C=N/Nc2cc(N3CCOCC3)nc(OCCc3ccccn3)n2)c1 = 77
4) O=C1Cc2c([nH]c3ccc(Br)cc23)-c2ccccc2N1 = 96

----------
system: Caco-2; experiment: cell viability relative to DMSO; higher = less toxic; conditions: 72 h; 100 nM
recorded_metric: cell viability (%)

1) CC[C@H](CC[C@@H](C)[C@H]1CC[C@H]2[C@@H]3CC=C4C[C@@H](O)CC[C@]4(C)[C@H]3CC[C@]12C)C(C)C = 99.4
2) Clc1ccc(C(Cn2ccnc2)OCc2csc3c(Cl)cccc23)c(Cl)c1 (centres undefined) = 95
3) CN1CCC(NC(=O)c2cc(-c3c(O)cc(O)cc3Oc3ccc([N+](=O)[O-])cc3)on2)CC1 = 101
4) COc1ccc(-c2ccc3c(N4CCOC[C@@H]4C)nc(N4CCOC[C@@H]4C)nc3n2)cc1CO = 54
5) CCCCNc1c(C(=O)OCC)c(C)nc2c1cnn2CC [tracazolate] = 97.2
6) C[C@](N)(Cc1ccc(O)c(O)c1)C(=O)O = 89.8
7) CC(C)(C)CC(C)(C)c1ccc(O)c(Cc2ccc(Cl)cc2Cl)c1 = 99.7
8) O=c1cc(N2CCNCC2)oc2c(-c3ccccc3)cccc12 = 89.2
9) O=C1Nc2ccc(I)cc2C1=Cc1cc(Br)c(O)c(Br)c1 = 108

----------
system: Calu-3; assay: cell viability relative to DMSO; higher = less toxic; conditions: 72 h; 10 nM
recorded_metric: cell viability (%)

1. O=c1cc(N2CCNCC2)oc2c(-c3ccccc3)cccc12 = 98.4
2. CC(C)(C)c1nc(-c2cccc(NS(=O)(=O)c3c(F)cccc3F)c2F)c(-c2ccnc(N)n2)s1 = 93.8
3. CC(=O)O[C@H]1C[C@@]2(C)[C@@H](C[C@@H](O)[C@H]3[C@@]4(C)CC[C@@H](O)[C@@H](C)[C@@H]4CC[C@@]32C)/C1=C(\CCC=C(C)C)C(=O)O = 109
4. C=CCNC(=O)c1cc([N+](=O)[O-])cc2c(=O)[nH]c(Nc3ccc(Cl)c(Cl)c3)nc12 = 93.2
5. CO/N=C(\C(=O)N[C@@H]1C(=O)N2C(C(=O)[O-])=C(C[N+]3(C)CCCC3)CS[C@H]12)c1csc(N)n1 [cefepime] = 105
6. CO/N=C(\C(=O)N[C@@H]1C(=O)N2C(C(=O)OCOC(=O)C(C)(C)C)=C(C)CS[C@H]12)c1csc(N)n1 = 93.2
7. Nc1cccc2c1C(=O)N(C1CCC(=O)NC1=O)C2=O (configuration not stated) [pomalidomide] = 103

----------
tested on: U2OS; assay: cell viability relative to DMSO; higher = less toxic; details: 72 h; 100 nM
recorded_metric: cell viability (%)

1. CS(=O)(=O)OCCCCOS(C)(=O)=O = 105
2. O=c1c2ccccc2[se]n1-c1ccccc1 = 105
3. CC1(C)CC[C@]2(C(=O)O)CC[C@]3(C)[C@H](C(=O)C=C4[C@@]5(C)C=C(C#N)C(=O)C(C)(C)[C@@H]5CC[C@]43C)[C@@H]2C1 = 102

----------
system: HepG2; assay: cell viability relative to DMSO; higher = less toxic; settings: 72 h; 1 nM
recorded_metric: cell viability (%)

1) CO[C@@]1(NC(=O)CSC[C@@H](N)C(=O)O)C(=O)N2C(C(=O)O)=C(CSc3nnnn3C)CS[C@@H]21 [cefminox] = 108
2) CCC(CC)(NC(=O)C(C)C)C(=O)N[C@@H](CCCNC(=N)N)C(=O)NC1(C(=O)NC(c2ccc(F)cc2)c2ccc(F)cc2)CCCC1 [MM-102] = 100
3) CCCCOc1nc(N)c2c(n1)N(Cc1cccc(CN3CCCC3)c1)CC(=O)N2 [GS-9620] = 105
4) Nc1c2ccccc2nc2ccccc12 [9-aminoacridine] = 93.5
5) CNC(=O)c1c(I)c(C(=O)NCC(=O)Nc2c(I)c(C(=O)O)c(I)c(C(=O)NCCO)c2I)c(I)c(N(C)C(C)=O)c1I [ioxaglic-acid] = 95.9
6) CC(C)NC[C@@H](O)COc1ccccc1-n1cccc1 (racemic) [isamoltane] = 97.1
7) O=C1N[C@@H]2[C@@H](O)[C@@H](O)[C@H](O)[C@@H](CO)N2C1=O [kifunensine] = 95.6
8) C[C@H]1COc2c(C3(N)CC3)c(F)cc3c(=O)c(C(=O)O)cn1c23 [pazufloxacin] = 88.8
9) CCCCNc1c(C(=O)OCC)c(C)nc2c1cnn2CC [tracazolate] = 97.6
10) OC[C@H]1O[C@H](O[C@]2(CCl)O[C@H](CCl)[C@@H](O)[C@@H]2O)[C@H](O)[C@@H](O)[C@H]1Cl [sucralose] = 99.1
11) CCCN(CCC)C1Cc2cc(OC)c(OC)cc2C1 = 96.1
12) Cn1cc(C(=O)OCC2CCN(CCNS(C)(=O)=O)CC2)c2ccccc21 = 96.1
13) COC(=O)C1=CO[C@@H](O[C@@H]2O[C@H](CO)[C@@H](O)[C@H](O)[C@H]2O)[C@@H]2C(CO)=CC[C@H]12 [geniposide] = 104
14) COc1ccc(-c2ccc3c(N4CCOC[C@@H]4C)nc(N4CCOC[C@@H]4C)nc3n2)cc1CO [AZD8055] = 99.4
15) C[C@@H](C1=C(CCN(C)C)Cc2ccccc21)c1ccccn1 (racemic) [dimetindene] = 104
16) CN1CCC[C@@H](CC2c3ccccc3Sc3ccccc32)C1 (racemic) [metixene] = 104
17) CC(C)(C)NCC(O)COc1cccc2c1CCC(=O)N2 (stereo not drawn) [carteolol] = 101
18) CC(=O)N(OCc1ccccc1)[C@@H]1c2cc(C#N)ccc2OC(C)(C)[C@H]1O = 95.1
19) CC1(C)S[C@@H]2[C@H](NC(=O)[C@H](NC(=O)N3CCN(S(C)(=O)=O)C3=O)c3ccccc3)C(=O)N2[C@H]1C(=O)O [mezlocillin] = 99.6
20) O=C(c1ccc(Cl)cc1)N(Cc1ccccc1)C1CCCCC1 [FPS-ZM1] = 106
21) Cc1csc(S(=O)(=O)N(CC(C)C)c2cc3c(cc2OCc2ccc(C(=O)O)cc2)CCC3)n1 [ONO-8130] = 110
22) N[C@@H]1[C@H]2CN(c3nc4c(cc3F)c(=O)c(C(=O)O)cn4-c3ccc(F)cc3F)C[C@@H]12 [trovafloxacin] = 115
23) Cc1nc(=O)c2cc(CN(C)c3ccc(C(=O)N[C@@H](CCC(=O)O)C(=O)O)s3)ccc2[nH]1 [raltitrexed] = 111
24) O=C(O)CCCc1ccc(N(CCCl)CCCl)cc1 [chlorambucil] = 103
25) Cc1nc2c([nH]1)-c1ccccc1N(C(=O)c1ccc(NC(=O)c3ccccc3-c3ccccc3)cc1)CC2 [conivaptan] = 97.9
26) CN1CCN(c2ccc(-c3cccc(CN4CCOCC4)c3)cc2NC(=O)c2c[nH]c(=O)cc2C(F)(F)F)CC1 [OICR-9429] = 108
27) CO[C@H]1C[C@@H]2CC[C@@H](C)[C@@](O)(O2)C(=O)C(=O)N2CCCC[C@H]2C(=O)O[C@H]([C@H](C)C[C@@H]2CC[C@H](n3cnnn3)[C@H](OC)C2)CC(=O)[C@H](C)/C=C(\C)[C@@H](O)[C@@H](OC)C(=O)[C@H](C)C[C@H](C)/C=C/C=C/C=C/1C [zotarolimus] = 84.4
28) CN1[C@@H]2CC[C@H]1C[C@@H](OC(c1ccccc1)c1ccccc1)C2 [benztropine-mesylate] = 103
29) CO/N=C(\C(=O)N[C@@H]1C(=O)N2C(C(=O)OCOC(=O)C(C)(C)C)=C(C)CS[C@H]12)c1csc(N)n1 [cefetamet-pivoxil] = 102
30) Clc1ccc(N2CCN(Cc3c[nH]c4ncccc34)CC2)cc1 = 102
31) C[C@H]1O[C@@H](Oc2c(-c3cc(O)c(O)c(O)c3)oc3cc(O)cc(O)c3c2=O)[C@@H](O)[C@@H](O)[C@@H]1O [myricitrin] = 104
32) Clc1ccc(C(Cn2ccnc2)OCc2csc3c(Cl)cccc23)c(Cl)c1 (stereo not drawn) [sertaconazole] = 116
33) O=C1Cc2c([nH]c3ccc(Br)cc23)-c2ccccc2N1 [kenpaullone] = 110

Each recorded value in this set is attributed to the supplement of paper PMC13380429.
